Entries and their apparent KD of MS2 coat protein
Test system: MS2 coat protein
Assay: apparent KD of MS2 coat protein; designed switch direction (-1 OFF switch, 1 ON switch): -1; higher = weaker reporter binding
Settings: input ligand: none
Express it in µM; write the number only.

Past entries and their recorded results:
GCGCGUAGAUAGGAUAUUUGAUAAAGACGGACCAAAGAAGGAUUUACAUGAGGAUCACCCAUGUCGAUCCUCUU [EX6 C.17] (Eterna round: R97, puzzle: Exclusion 6)	0.0164
UAUAUGUUAGGAUAUUAGUAGUAAAUAAAUAAAAUUAUUACUGAGAAGGGACAUGAGGAUCACCCAUGUACCUC [Salish 062 v33] (Eterna round: R97, puzzle: Exclusion 4)	0.0127
GGUCGACAUGAGGAUCACCCAUGUCAGGAUAUCGUCACUGGAGCUUCGGCUCCAGUGACGAGAAGGGACAUAAU [E1/14-A1] (Eterna round: R97, puzzle: Exclusion 1)	0.0392
ACGCCGCAAGGAUAUACUUGCGGUGAUGUUCGAGUUCUUCUACUUGAGGAUCACCCAAGUAGAAGGUGCAAAAC [jl-ex2.4.60 ViennaUCT mod] (Eterna round: R97, puzzle: Exclusion 2)	0.014

Exam item: # return recorded apparent KD of MS2 coat protein for entry AAGAUACAUGAGGAUCACCCAUGUUAGGAUAUACGCAUGCAUGCAUGCAUGCAUGCAAGUAGAAGGAACCAUGC [Design #3] (Eterna round: R97, puzzle: Exclusion 1)
Marked response: 0.0284

Exam item: Return apparent KD of MS2 coat protein for the following sequence: GUAUACGAUGAGGAUAUAUGAUAUCAAAGCAUCAUAGAAGGCAUCACAUGAGGAUCACCCAUGUGAUCUUCUUG [Mat - Exclusion 6 - JL Mod - D33] (Eterna round: R97, puzzle: Exclusion 6)
Marked response: 0.0313

Exam item: Kindly indicate its recorded apparent KD of MS2 coat protein. Item: GGGUGACAUGAGGAUCACCCAUGUCAGGAUAUGGGCCCGGGCCCGAAAGGGCCCGGGCCCAGAAGGGACUGCCC [-52, -51 kcal, 22%A] (Eterna round: R97, puzzle: Exclusion 1)
Marked response: 0.0465

Exam item: Assign apparent KD of MS2 coat protein to the following record: AGUGUGAUAGGAUAUACAUGAGGAUCACCCAUGUGAAUGGUAAUGUGUCCAAGAUCAGGUAGAAGGGUCGGGUU [Eternabot (L1) Solution 56] (Eterna round: R97, puzzle: Exclusion 3)
Marked response: 0.101

Exam item: Output measured apparent KD of MS2 coat protein for this item: UUGUUAUGUGUAGGAUAUGCGUGUUAUUAUUAUGCAGAAGGACAUGAGGAUCACCCAUGUGUAUUGUUAUUAUAUAUUAUAUAU [Title] (Eterna round: R96, puzzle: Exclusion NG 1)
Marked response: 0.0208

Exam item: For CGACUGGUAGGAUAUACAUGAGGAUCACCCAUGUACCUGACAUGAGAAUAAACCAUCGGUAGAAGGGCUAAGUC [Eternabot (L2) Solution 79] (Eterna round: R97, puzzle: Exclusion 3) , write its apparent KD of MS2 coat protein.
Marked response: 0.0213

---

Reported apparent KD of MS2 coat protein is given for each of the following sequences.
Tested on: MS2 coat protein
Assay: apparent KD of MS2 coat protein; designed switch direction (-1 OFF switch, 1 ON switch): -1; higher = weaker reporter binding
Conditions: input ligand: none
Report as a plain number; the unit µM is understood.

Solved entries:
UAAUGUAUAUAGGAUAUCUAGCUGGAUACAGCUAGAGAAGGAUGUACAUGAGGAUCACCCAUGUAAAUCAGUGA [Ex6/14-B3] (Eterna round: R97, puzzle: Exclusion 6)	0.0393
AGCUGGAGAGGAUAUACGUAGGAAAAAAAAGUCUGAUCACUACAUGAGGAUCACCCAUGUAGAAGGCUCUGGCA [Ex2 Design 162: Sub-opt 26] (Eterna round: R96, puzzle: Exclusion 2)	0.0205
GCCUCACUUGAGGAUCACCCAAGUCAGGAUAUUCACUGAACUGCGUAACAGUUCGGCCGAAGAAGGGAUUCGGG [Uscedian] (Eterna round: R97, puzzle: Exclusion 1)	0.0965
GCUUGUGUUGAGGAUAUGCGCCGGCUCGCUGGCGCAGAAGGCGGCACAUGAGGAUCACCCAUGUCAGUUCGCGG [salish99_ex6_r004_009] (Eterna round: R97, puzzle: Exclusion 6)	0.0938

Exam item: Find the measured apparent KD of MS2 coat protein of GAUGGCUAAGGAUAUACAUAGAAGAAUUGAACUUGGAUUAUACAUGAGGAUCACCCAUGUAGAAGGUAGUCAUC [ExGluten 3 - Jieux - Exclusion 2] (Eterna round: R97, puzzle: Exclusion 2) and report it.
Marked response: 0.0246

---

Test system: MS2 coat protein
Assay: apparent KD of MS2 coat protein; designed switch direction (-1 OFF switch, 1 ON switch): -1; higher = weaker reporter binding
Conditions: input ligand: none
VALUE_KIND: apparent KD of MS2 coat protein (nM)
Unit nM implied. Number only.

AGCCUCGCUGUUAGGAUAUGCAUGGAUAAGCUCCGGCAGAAGGGACAUGAGGAUCACCCAUGUAACGUAGUUUA [BmEX4 B.4] (Eterna round: R97, puzzle: Brourd's mod of Exclusion 4)	25.2
UUUUUAUAUGAAGGAUAUACUUAACAUGAGGAUCACCCAUGUGGUGUUGUGAGUGAGUGAGUUUAGUAGAAGGUCAAUUCUUUG [JMF's solution 84] (Eterna round: R96, puzzle: Exclusion NG 2)	347
AGAUCACAUGAGGAUCACCCAUGUCAGGAUAUCAUCAUUGAAGCUGCGGCUUCAAUGAUGAGAAGGGACAUAAU [E1/2-B3] (Eterna round: R97, puzzle: Exclusion 1)	412
GGUGAGCUAGGAUAUGCUUUGGGCUCGCUUUCCUUCGUUUUACUUGAGGAUCACCCAAGUAGAAGGAGCUUGCC [salish99_ex2_r4_036] (Eterna round: R97, puzzle: Exclusion 2)	12.2

Here's the next entry for you.
Exam item: # return recorded apparent KD of MS2 coat protein for input UAUUAGCAAGCAAAUGGGUACAUGAGGAUCACCCAUGUGCUCGUCUUAUAAGGUACUGUGACGAACGUCACGGUACC [mod--Eli5] (Eterna round: R97, puzzle: Sensor, turn-off variant 1)
Marked response: 26.8

---

Entries annotated with measured apparent KD of K4 kissing-loop reporter
System: K4 kissing-loop RNA reporter;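 also: bound reporter read as fluorescence of individual clusters on recovered sequencing chips by microscopy, with normalized cluster intensities fitted with a binding model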
Test: apparent KD of K4 kissing-loop reporter; higher = weaker reporter binding
Details: Eterna round: R107; input ligand: none
Output spec: scalar in nM, unitless text.

UUUUUAUGCAGUGAUGUUGCUAAUAUAACAGAGGAUAUGCAUUAAUGCAGAAGGCUGAAAUACUAUACUUUAAUAAAUUAAAUUU [JR_SSFMNA_Sub014]	85.5
GCCGUAGAUGGAAGGAGCGUGGUUAAUGUAAGUGAUGUUUACGAGGUCAACAAUUGACCGCCACAGGUAGGUCGCCAUCUACGGC	57.2

Exam item: Report apparent KD of K4 kissing-loop reporter, nothing else, for this sequence: AUAGGAUUGCGAGGAUAUCCUUCCCACGUCGAAGUACCGUGCUUGAUGGAGUGAUGUUCGAUCAGAGGAGAAGGUGCGGUUUUGU [Same State FMN B GF24]
Marked response: 942

---

Test system: MS2 coat protein
Assay: apparent KD of MS2 coat protein; higher = weaker reporter binding
Details: Eterna round: R107; input ligand: tryptophan 2.4 mM
VALUE_KIND: apparent KD of MS2 coat protein (nM)
Reply with just the number (in nM).

UGUAUGGACUGAAGGAGCGGGUUGAUAAUCUGAGGAUCACCCAGGUAAAAGGCGAAAGCCACCCAGGUAGGUCGCAGUCCAUACU	36.4
AACAUGAGGAUCACCCAUGUAUUGGGUGAUACCAGCCUGAAUAAGGGCCCUUGGCAGCACCGCGCUAACUUUAUGUCUGCGAACC [Rebiercete]	277
AGACAUGAGGAUCACCCAUGUGAAGUGGAUACCAGCCGCAGCGAUGGCCCUUGGCAGCCAGCUUUGUGUCGAUACAUCCGCACUU [theeternabot_exclusion_MS2_Theo_A_2]	18.1
UAGGUGAUCUUCAACGGAAAACGUUGUGAUACCAGCCAACAAUACGGCCCUUGGCAGCACAUGAGGAUCACCCAUGUGUACACCG [Vetizaatdi]	30.6
GACAUGAGGAUCACCCAUGUUGACUAUGAAGGAGCGUCGGAAAUGACAGGUAGGUCGCAUAGUCGACCUUGUAUUUUGUGUGUUU [EAA #9]	11.6

// next item, apparent KD of MS2 coat protein requested
Exam item: Specify apparent KD of MS2 coat protein for CCUGCGUUUCUUUUCUUUCGCAGGAAUGAUACCAGUAGGGAAACCUACCCUUGGCAGCAUGGGACAUGAGGAUCACCCAUGUAAU [SSThA NP+V+V2 #2] , system MS2 coat protein.
Marked response: 408
